# Tested system: RSV fusion glycoprotein (RSV-F) (respiratory syncytial virus (strain not stated))
# Assay explanation: SPR; sensors loaded with RSV-F, mAb in solution (Experiment 2)
pKd: −log10 of the molar value.
Parameter measured: pKd

[
  {
    "Binder": "MPK182 (antibody, V domains shown) VH: EVQLVESGGGLVKPGGSLRLSCTASLSTFSDYYMTWIRQAPGKGLEWLGYISGSQSQTNLADSVKGRFTISRDNAKKSLYLQMNSLRVEDTATYFCARVHLWFGDLNALDLWGQGTKVTVSS VL: QSVLTQPPSVSGAPGQRVTISCAGSSSNIGAGFDVHWYQQVPGTAPKLLIYNTDNRASGVPDRFSASKSGTSAFLAITGLQAEDEADYYCQSYDNSLSGVFGGGTKLTVL",
    "Recorded measurement": 8.55
  },
  {
    "Binder": "MPK195 (antibody, V domains shown) VH: EVQLVQSGAAVKKPGESLKISCRGSGYSFINYWIGWVRQMPGKGLEWMGVIYPFDSDTQYSPSFQGHVTISADKSINTAYLQWDSLKAADTAIYYCARFTFGIALSTADVYGEGQAFDIWGPGTMVTVSS VL: EIVLTQSPATLSVSPGERATLSCRASQSVAGKIAWYQQRPGQAPRLLIYGASTRATGVPARFSGSGSETEFTLTISSLQSEDFAVYYCQQYSNWPQAFGPGTRLDMK",
    "Recorded measurement": 12.00
  },
  {
    "Binder": "MPK167 (antibody, V domains shown) VH: EVQLVQSGPEVKKPGESLKISCKASGYSFINYWIGWVRQMPGKGLEWMGIIYPFDSDTQYSPSFQGHVTISADKSINTAYVQWSSLKASDTAMYYCARFTFGIAVVAGDVSGEGHAFDIWGQGTMVTVSS VL: EIVMMQSPATLSVSPGERATLSCRASQSVAGNLAWYQQSPGQAPRLLIYGASTRATGVPARFSGSGSETEFTLTISSLQSEDFAVYFCQQYSNWPHAFGQGTRLDIK",
    "Recorded measurement": 10.96
  },
  {
    "Binder": "MPK171-v1 (antibody, V domains shown) VH: QVQLVQSGAEVKKPGESLKISCKGSGYSFINYWIGWVRQMPGKGLEWMGIIYPFDSDTKYSPSFQGHVTISADKSINTAYVQWSSLKASDTAMYYCARFTFGIAVVTDDVSGEGHAFDIWGQGTMVTVSS VL: QSVLTQPPSVSGAPGQRVTISCAGSSSNIGAGFDVHWYQQVPGTAPKLLIYNTDNRASGVPDRFSASKSGTSASLAITGLQAEDEADYYCQSYDNSLSGVFGGGTKLTVL",
    "Recorded measurement": 8.92
  }
]
